# method_notes: P. falciparum Dd2 growth inhibitors, dose response, SYBR Green, cherry-picked samples (AID 1159567)
# Type: functional, cell-based
Active and inactive are the calls of the source.
AC50 values for the compounds below.
property_name: AC50

compound	property_name	observed
Cc1ccc(S(=O)(=O)N(C)C[C@H]2OCc3ccccc3-c3c(n(C)c4ccccc34)C(=O)N([C@H](C)CO)C[C@@H]2C)cc1	AC50	2360 nM (active)
COc1ccccc1CN1CC[C@H]2[C@H](CO)Nc3ccc(C#Cc4ccccc4)cc3[C@H]21	AC50	1450 nM (active)
C[C@H](CO)N1C[C@H](C)[C@@H](CN(C)C(=O)c2ccc(F)cc2)Oc2ncc(/C=C/c3ccccc3)cc2C1=O	AC50	1630 nM (active)
COc1ccc(C#Cc2cccc(-c3nc(C(=O)N[C@@H]4CCN(Cc5ccccc5)C4)cc4c3[C@@H](CCO)N([S+]([O-])C(C)(C)C)C4)c2)cc1OC (stereo not given in full)	AC50	3580 nM (active)
CCS(=O)(=O)N1CCCCN2[C@H](CO)[C@H](c3ccc(C#Cc4ccccc4OC)cc3)[C@@H]2C1	AC50	8090 nM (active)

====

# assay_system: Cytochrome P450 2C9 (Homo sapiens, UniProt P11712)
# Sequence (P11712 whole entry): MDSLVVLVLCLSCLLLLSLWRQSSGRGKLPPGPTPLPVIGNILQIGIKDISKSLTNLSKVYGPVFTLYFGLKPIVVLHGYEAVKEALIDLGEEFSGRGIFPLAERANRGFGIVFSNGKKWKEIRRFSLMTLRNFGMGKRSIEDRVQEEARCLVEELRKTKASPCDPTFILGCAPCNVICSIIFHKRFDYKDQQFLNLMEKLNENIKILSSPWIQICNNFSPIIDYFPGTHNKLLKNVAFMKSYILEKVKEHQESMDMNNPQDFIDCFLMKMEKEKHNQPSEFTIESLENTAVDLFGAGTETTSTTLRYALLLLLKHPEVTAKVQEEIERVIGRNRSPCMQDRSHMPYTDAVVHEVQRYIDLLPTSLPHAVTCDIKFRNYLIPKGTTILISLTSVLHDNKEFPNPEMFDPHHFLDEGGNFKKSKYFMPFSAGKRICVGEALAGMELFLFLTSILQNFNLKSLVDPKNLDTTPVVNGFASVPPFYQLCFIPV
property_name: AC50

> print(dat)
                                    molecule                              assay.system  property.name                   observed
 1  CCOC(=O)CSCC(NC(=O)OC(C)(C)C)C(=O)OCC (configuration not stated)  Cytochrome P450 2C9 (Homo sapiens, UniProt P11712)           AC50     14.1 µM (inconclusive)
 2  O=C(O)c1ccccc1-c1ccc(/C=c2\sc3nc4cc(Br)cnc4n3c2=O)o1  Cytochrome P450 2C9 (Homo sapiens, UniProt P11712)           AC50       20 µM (inconclusive)
 3  CC(c1ccccc1C(O)c1ccccc1)N(C)C (configuration not stated)  Cytochrome P450 2C9 (Homo sapiens, UniProt P11712)           AC50   0.0355 µM (inconclusive)
 4  COc1ccc(NC(=O)CCNS(=O)(=O)c2ccc3c(c2)CCC(=O)N3)cc1  Cytochrome P450 2C9 (Homo sapiens, UniProt P11712)           AC50     4.47 µM (inconclusive)
 5  Cn1cccc1C(=O)N1CCC[C@@]2(CCN(Cc3cc(C(F)(F)F)cc(C(F)(F)F)c3)C2)C1  Cytochrome P450 2C9 (Homo sapiens, UniProt P11712)           AC50     39.8 µM (inconclusive)
 6   CC(C)=CCC1=C(OCC(=O)O)C(=O)c2ccccc2C1=O  Cytochrome P450 2C9 (Homo sapiens, UniProt P11712)           AC50     3.98 µM (inconclusive)
 7  COCCn1c(C(=O)N2CCCC2)cc2c1C[C@H]1CN(C(=O)c3ccccc3)[C@@](Cc3ccc(OC)cc3)(C(=O)OC)[C@@H]21  Cytochrome P450 2C9 (Homo sapiens, UniProt P11712)           AC50     39.8 µM (inconclusive)
 8  CC(C)C(NC(=O)OCc1ccccc1)C(=O)O (configuration not stated)  Cytochrome P450 2C9 (Homo sapiens, UniProt P11712)           AC50     11.2 µM (inconclusive)
 9  O=c1cc(N2CCN(c3ccccc3)CC2)[nH]c(=O)n1C1CCCCC1  Cytochrome P450 2C9 (Homo sapiens, UniProt P11712)           AC50     15.8 µM (inconclusive)
10  CCOC(=O)CC1C(=O)NCCN1S(=O)(=O)c1ccccc1Cl (configuration not stated)  Cytochrome P450 2C9 (Homo sapiens, UniProt P11712)           AC50  0.00562 µM (inconclusive)
11  Nc1nc(N)c(-c2cccc(C(F)(F)F)c2)c(Cc2cccc(C(F)(F)F)c2)n1  Cytochrome P450 2C9 (Homo sapiens, UniProt P11712)           AC50     5.01 µM (inconclusive)
12                    N[C@H]1C[C@H]1c1ccccc1  Cytochrome P450 2C9 (Homo sapiens, UniProt P11712)           AC50     12.6 µM (inconclusive)
13               CC(=O)c1sc(NC(=O)C(C)C)nc1C  Cytochrome P450 2C9 (Homo sapiens, UniProt P11712)           AC50     39.8 µM (inconclusive)
14   Cc1ccccc1OCCNC=C1C(=O)N(C)C(=O)N(C)C1=O  Cytochrome P450 2C9 (Homo sapiens, UniProt P11712)           AC50   0.0126 µM (inconclusive)
15  COc1cccc(Cn2c(=O)c(-c3cccs3)nc3cnc(N4CCOCC4)nc32)c1  Cytochrome P450 2C9 (Homo sapiens, UniProt P11712)           AC50     25.1 µM (inconclusive)
16  Cc1ccc(-c2nn3c(C)nnc3c3ccccc23)cc1S(=O)(=O)NCCN1CCOCC1  Cytochrome P450 2C9 (Homo sapiens, UniProt P11712)           AC50       20 µM (inconclusive)
17  Cc1c(NC(=O)/C=C/c2cn(-c3ccccc3)nc2-c2ccc(F)cc2)c(=O)n(-c2ccccc2)n1C  Cytochrome P450 2C9 (Homo sapiens, UniProt P11712)           AC50       20 µM (inconclusive)
18  CN1CCN(C(=O)c2ccc(COc3ccc(C(C)(C)C)cc3)o2)CC1  Cytochrome P450 2C9 (Homo sapiens, UniProt P11712)           AC50     31.6 µM (inconclusive)
19  CC(C)(C)c1ccc(-c2c(C#N)c(N)nc3c2CCCC3)s1  Cytochrome P450 2C9 (Homo sapiens, UniProt P11712)           AC50     7.08 µM (inconclusive)
20  O=C(Nc1cccc([N+](=O)[O-])c1)c1ccc(CSc2ccccc2)cc1  Cytochrome P450 2C9 (Homo sapiens, UniProt P11712)           AC50    0.562 µM (inconclusive)
21  O=C(CCCC1=NS(=O)(=O)c2ccccc2N1)N1CCC2(CC1)OCCO2  Cytochrome P450 2C9 (Homo sapiens, UniProt P11712)           AC50     25.1 µM (inconclusive)
22       CC1=CC(C)(C)N(C)C(=O)N1c1ccc(Cl)cc1  Cytochrome P450 2C9 (Homo sapiens, UniProt P11712)           AC50     31.6 µM (inconclusive)
